The reported numbers originate from patent US11365195B2.

- MEASURED_ON: σ1R (Cavia porcellus)
- Construct: tissue BioReclamation IVT (Hicksville, N.Y.); host or cells: male Hartley guinea pig brain cortex membranes
- Sequence (Q60492 whole entry): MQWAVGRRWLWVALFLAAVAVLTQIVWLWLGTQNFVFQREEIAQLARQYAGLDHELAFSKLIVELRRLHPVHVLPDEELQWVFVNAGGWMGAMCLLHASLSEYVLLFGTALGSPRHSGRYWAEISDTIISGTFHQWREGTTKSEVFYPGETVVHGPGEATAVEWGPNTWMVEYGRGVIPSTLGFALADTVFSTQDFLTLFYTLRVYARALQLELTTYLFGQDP
- ASSAY_NAME: σ1R radioligand binding in guinea pig cortex ([3H]-(+)-Pentazocine competition)
- CONDITION_SET: ratio of σ1 to DAT affinity values
Assign class by σ1/DAT: not lower than 0.7 means met; lower than 0.7 means not met.

Query :: Identify whether the reported σ1/DAT of the following compound is 0.7 or greater: `Fc1ccc(C(SCCNC2CCN(CC3CC3)CC2)c2ccc(F)cc2)cc1`
Result :: not met

Query :: Let us now turn to `Cl.Cl.Fc1ccc(CN2CCC(NCCSC(c3ccc(F)cc3)c3ccc(F)cc3)CC2)cc1`
Result :: not met

Query :: Moving on to [O-][S+](CCNC1CCN(CC(O)Cc2ccccc2)CC1)C(c1ccc(F)cc1)c1ccc(F)cc1 (centres unmarked)
Result :: met

Query :: What about CC(O)CN1[C@H](C)CN(CC[S+]([O-])C(c2ccc(F)cc2)c2ccc(F)cc2)C[C@@H]1C (some centres unmarked) ?
Result :: met

Query :: Query Cl.Cl.OC(Cc1ccccc1)CN(CC(O)Cc1ccccc1)C1CCN(CCSC(c2ccc(F)cc2)c2ccc(F)cc2)CC1 (centres unmarked) next
Result :: met

Query :: Moving on to Cl.Cl.OC(CNC1CCN(CCSC(c2ccc(F)cc2)c2ccc(F)cc2)CC1)Cc1ccccc1 (centres unmarked)
Result :: met

Query :: Further, for `Fc1ccc(C(SCCNC2CCN(Cc3ccccc3)CC2)c2ccc(F)cc2)cc1` ?
Result :: not met
